System: biotinyl-Trp-oxazolone
assay-details: self-aminoacylation, catalytic enhancement (BWO) (fold over background); higher = more active; k-Seq, kA / k0A0; sequences stand for … in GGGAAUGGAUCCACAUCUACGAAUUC…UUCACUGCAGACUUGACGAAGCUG
Variants at the floor of the assay were thinned out.
test-readout: self-aminoacylation
Could you keep your reply to the number by itself?

Worked cases, self-aminoacylation given:
# construct-sequence, self-aminoacylation
data = [
    ("CGACUUCAAGCAAUCGGUCUG [Fam1A.1 aminoacylation ribozyme variant]", 20.1),
    ("UUAAUUCAAACAAUCGGUCUG [Fam1A.1 aminoacylation ribozyme variant]", 2.47),
]

**Query** // self-aminoacylation lookup, key: AUUACCUUGGUCAUAGAGUGA [Fam2.1 aminoacylation ribozyme variant]
**Result** 9.04

**Query** Item under review: AUUCACCUAGGUCUUCGGUUG [Fam2.2 aminoacylation ribozyme variant] . Reported self-aminoacylation?
**Result** 1.72

**Query** What value of self-aminoacylation has been recorded for this entry: AUUCAACUAGGUCAUCGGUUG [Fam2.2 aminoacylation ribozyme variant]
**Result** 0.843

**Query** # query: self-aminoacylation of entry AAGUUUGCUAAUAGUCCCGAG [Fam3.1 aminoacylation ribozyme variant]
**Result** 2.65

====

Reported self-aminoacylation is given for each of the following sequences.
System: biotinyl-Leu-oxazolone
assay-details: self-aminoacylation, catalytic enhancement (BLO) (fold over background); higher = more active; k-Seq, kA / k0A0; sequences stand for … in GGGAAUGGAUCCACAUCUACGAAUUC…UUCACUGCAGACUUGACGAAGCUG
Variants at the floor of the assay were thinned out.

Here is how some sequences turned out for self-aminoacylation.
# construct-sequence, test-readout, reported
measured = [
    ("AUUACCCUGGUCACCGAAUGA [Fam2.1 aminoacylation ribozyme variant]", "self-aminoacylation", 1.31),
    ("CUACUUCAAAAAAUCGGUGUG [Fam1A.1 aminoacylation ribozyme variant]", "self-aminoacylation", 1.31),
    ("CCACAAUUAAAGCAAUCGGUC [Fam1B.1 aminoacylation ribozyme variant]", "self-aminoacylation", 0.881),
]

**Query** Look up self-aminoacylation: AAAUUUGUUAAUAGUCGCAAG [Fam3.1 aminoacylation ribozyme variant]
**Result** 1.99

**Query** Any idea what its self-aminoacylation is? The sequence is AUUCACCUGGGUCAUCGGGCG [Fam2.2 aminoacylation ribozyme variant]
**Result** 5.26

**Query** Look at this sequence and give its reported self-aminoacylation. AUUCACCUAGUUCAUCGGGUG [Fam2.2 aminoacylation ribozyme variant]
**Result** 2.74

**Query** I'd like to know its self-aminoacylation. The sequence in question is CUAAUUCAAACAAUUGGUCUG [Fam1A.1 aminoacylation ribozyme variant]
**Result** 0.744

====

Let's look at some sequences and their measured self-aminoacylation.
Test system: biotinyl-Met-oxazolone
assay-details: self-aminoacylation, catalytic enhancement (BMO) (fold over background); higher = more active; k-Seq, kA / k0A0; sequences stand for … in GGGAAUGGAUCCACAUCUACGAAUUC…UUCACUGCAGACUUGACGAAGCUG
Fewer inactive variants are shown than the library holds.
Reply with the value as a number alone.

# construct-sequence, tested-on, self-aminoacylation
records = [
    ("AAGUUUCCUAAUAGUCGUAAG [Fam3.1 aminoacylation ribozyme variant]", "biotinyl-Met-oxazolone", 1.18),
    ("CUACUUCAAACAAUCAGUCUC [Fam1A.1 aminoacylation ribozyme variant]", "biotinyl-Met-oxazolone", 0.723),
    ("AUUACGCUGGUCGUCGAGUGA [Fam2.1 aminoacylation ribozyme variant]", "biotinyl-Met-oxazolone", 1.25),
    ("CUACUUCAAGCAAUCGCUCUG [Fam1A.1 aminoacylation ribozyme variant]", "biotinyl-Met-oxazolone", 1.07),
    ("AAGUUUGCAAAAAGUCGCAAG [Fam3.1 aminoacylation ribozyme variant]", "biotinyl-Met-oxazolone", 1.07),
    ("AAGUUUGCUAAUAGGCCCAAG [Fam3.1 aminoacylation ribozyme variant]", "biotinyl-Met-oxazolone", 0.899),
]

**Query** # self-aminoacylation lookup, item CGACACUCCAAGCAAUCGGUC [Fam1B.1 aminoacylation ribozyme variant]
**Result** 0.665

**Query** If you can, please state the reported self-aminoacylation value of CCAUACUUCAAGAAAUCGGUC [Fam1B.1 aminoacylation ribozyme variant] .
**Result** 0.777

====

System: biotinyl-Phe-oxazolone
assay-details: self-aminoacylation, catalytic enhancement (BFO) (fold over background); higher = more active; k-Seq, kA / k0A0; sequences stand for … in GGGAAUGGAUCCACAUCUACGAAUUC…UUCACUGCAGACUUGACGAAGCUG
Variants at the floor of the assay were thinned out.
Classify by self-aminoacylation. Ranges: bottom = under 3, middle = from 3 up to 20, top = 20 and over

# construct-sequence, assigned-class
rows = [
    ("AAGAUUGCUAAUAGUCACAAG [Fam3.1 aminoacylation ribozyme variant]", "bottom"),
]

**Query** Please report the category associated with CUACUUCAAAGAAUGGGUCUG [Fam1A.1 aminoacylation ribozyme variant] , nothing else.
**Result** bottom

**Query** Could you place CUACUUCAACCAAUCGGUUUG [Fam1A.1 aminoacylation ribozyme variant] in its proper category? Many thanks.
**Result** middle

====

Test system: biotinyl-Trp-oxazolone
assay-details: self-aminoacylation, catalytic enhancement (BWO) (fold over background); higher = more active; k-Seq, kA / k0A0; sequences stand for … in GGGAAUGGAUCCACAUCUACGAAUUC…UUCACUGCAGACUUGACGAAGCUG
This sample holds only a part of the variants without activity.
Use 6 as the dividing line for self-aminoacylation, with the line itself on the rule met side and lower values as rule not met.

# construct-sequence, tested-on, assigned-class
rows = [
    ("UUUCACCUAGGUCAUGGGGUG [Fam2.2 aminoacylation ribozyme variant]", "biotinyl-Trp-oxazolone", "rule not met"),
]

**Query** Reported self-aminoacylation reaches at least 6 for GCACACUUCAAGCAAUCGGUC [Fam1B.1 aminoacylation ribozyme variant] ?
**Result** rule met

**Query** Kindly determine if self-aminoacylation recorded for CUUCACCCAGGUCAUCGGGUG [Fam2.2 aminoacylation ribozyme variant] is above or exactly 6.
**Result** rule not met

**Query** Please tell me: is the sequence CCACACUUCAAACAAGCGGUC [Fam1B.1 aminoacylation ribozyme variant] at or over 6 in terms of self-aminoacylation?
**Result** rule not met

**Query** hey, is self-aminoacylation for this one >= 6? AUUCACUUAGGUCAUGGGGUG [Fam2.2 aminoacylation ribozyme variant]
**Result** rule not met

**Query** Given the entry CUACUUCAAACUAUCGGCCUG [Fam1A.1 aminoacylation ribozyme variant] , answer whether its self-aminoacylation meets or surpasses 6.
**Result** rule not met

**Query** Hello, I need to know if CUACUUCAAACAAGCGUUCUG [Fam1A.1 aminoacylation ribozyme variant] has measured self-aminoacylation not below 6. Thanks!
**Result** rule not met

**Query** Has CUAGUUCCAACAAUCGGUCUG [Fam1A.1 aminoacylation ribozyme variant] a recorded self-aminoacylation greater than or equal to 6?
**Result** rule met

====

Test system: biotinyl-Met-oxazolone
assay-details: self-aminoacylation, catalytic enhancement (BMO) (fold over background); higher = more active; k-Seq, kA / k0A0; sequences stand for … in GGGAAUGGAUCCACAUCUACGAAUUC…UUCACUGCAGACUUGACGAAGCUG
This sample holds only a part of the variants without activity.
I would appreciate it if you labelled entries T when self-aminoacylation is 1 or higher, otherwise F.

Solved cases (4 shown):
# construct-sequence, assigned-class
records = [
    ("ACACACGUCAAGCAAUCGGUC [Fam1B.1 aminoacylation ribozyme variant]", "T"),
    ("CUACUUCAAACAAUCCGUCUC [Fam1A.1 aminoacylation ribozyme variant]", "F"),
    ("AUUACUCUGGACAUCGAGUGA [Fam2.1 aminoacylation ribozyme variant]", "T"),
    ("AUUUCCCUGGUCUUCGAGUGA [Fam2.1 aminoacylation ribozyme variant]", "T"),
]

Alright, here's another sequence for you.
**Query** Hello, I need to know if AAGUUCGCUUAUAGUCGCAAG [Fam3.1 aminoacylation ribozyme variant] has measured self-aminoacylation not below 1. Thanks!
**Result** T

====

Tested on: biotinyl-Val-oxazolone
assay-details: self-aminoacylation, catalytic enhancement (BVO) (fold over background); higher = more active; k-Seq, kA / k0A0; sequences stand for … in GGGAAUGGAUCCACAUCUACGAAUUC…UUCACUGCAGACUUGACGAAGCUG
Variants at the floor of the assay were thinned out.
Note to self: values exactly at 1 are true. So self-aminoacylation at or above 1 is true, below is false.

Example entries and their recorded answers appear below.
# construct-sequence, assigned-class
records = [
    ("AUUCACCUAGGUCUUCGGUUG [Fam2.2 aminoacylation ribozyme variant]", "true"),
    ("AUUCACAUAGGUCAUCGGGCG [Fam2.2 aminoacylation ribozyme variant]", "true"),
]

**Query** Textbook exercise: given the entry AUUUACCUAGGUCACCGGGUG [Fam2.2 aminoacylation ribozyme variant] , state whether its self-aminoacylation is greater than or equal to 1.
**Result** true

**Query** Does CUACUUAAAACAAUCGUUCUG [Fam1A.1 aminoacylation ribozyme variant] have a reported self-aminoacylation of at least 1?
**Result** false

**Query** Dear colleague, could you confirm whether CCGCACUUCAAGCGAUCGGUC [Fam1B.1 aminoacylation ribozyme variant] has self-aminoacylation at or above 1?
**Result** true

**Query** State whether the measured self-aminoacylation reaches 1, counting equality as reaching it, for GCACACUUCAAGCAAUCGGUA [Fam1B.1 aminoacylation ribozyme variant]
**Result** true

**Query** Reported self-aminoacylation reaches at least 1 for AAGCUUGCUAAUAGUCGGAAG [Fam3.1 aminoacylation ribozyme variant] ?
**Result** true

**Query** Reported self-aminoacylation at or above 1? AUUACGCUGGUCAACGAGUGA [Fam2.1 aminoacylation ribozyme variant]
**Result** true
